target: Epidermal growth factor receptor (Homo sapiens) (UniProt P00533); assay: EGFR binders on small-molecule microarrays, primary screen, biochemical, small-molecule microarray, 635 nm fluorescence (AID 1104); conditions: EGFR binding, higher = more signal;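 further: score merges 667 nm emission intensity with spot signal to noise over triplicate slides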
Sequence (P00533 whole entry, looked up): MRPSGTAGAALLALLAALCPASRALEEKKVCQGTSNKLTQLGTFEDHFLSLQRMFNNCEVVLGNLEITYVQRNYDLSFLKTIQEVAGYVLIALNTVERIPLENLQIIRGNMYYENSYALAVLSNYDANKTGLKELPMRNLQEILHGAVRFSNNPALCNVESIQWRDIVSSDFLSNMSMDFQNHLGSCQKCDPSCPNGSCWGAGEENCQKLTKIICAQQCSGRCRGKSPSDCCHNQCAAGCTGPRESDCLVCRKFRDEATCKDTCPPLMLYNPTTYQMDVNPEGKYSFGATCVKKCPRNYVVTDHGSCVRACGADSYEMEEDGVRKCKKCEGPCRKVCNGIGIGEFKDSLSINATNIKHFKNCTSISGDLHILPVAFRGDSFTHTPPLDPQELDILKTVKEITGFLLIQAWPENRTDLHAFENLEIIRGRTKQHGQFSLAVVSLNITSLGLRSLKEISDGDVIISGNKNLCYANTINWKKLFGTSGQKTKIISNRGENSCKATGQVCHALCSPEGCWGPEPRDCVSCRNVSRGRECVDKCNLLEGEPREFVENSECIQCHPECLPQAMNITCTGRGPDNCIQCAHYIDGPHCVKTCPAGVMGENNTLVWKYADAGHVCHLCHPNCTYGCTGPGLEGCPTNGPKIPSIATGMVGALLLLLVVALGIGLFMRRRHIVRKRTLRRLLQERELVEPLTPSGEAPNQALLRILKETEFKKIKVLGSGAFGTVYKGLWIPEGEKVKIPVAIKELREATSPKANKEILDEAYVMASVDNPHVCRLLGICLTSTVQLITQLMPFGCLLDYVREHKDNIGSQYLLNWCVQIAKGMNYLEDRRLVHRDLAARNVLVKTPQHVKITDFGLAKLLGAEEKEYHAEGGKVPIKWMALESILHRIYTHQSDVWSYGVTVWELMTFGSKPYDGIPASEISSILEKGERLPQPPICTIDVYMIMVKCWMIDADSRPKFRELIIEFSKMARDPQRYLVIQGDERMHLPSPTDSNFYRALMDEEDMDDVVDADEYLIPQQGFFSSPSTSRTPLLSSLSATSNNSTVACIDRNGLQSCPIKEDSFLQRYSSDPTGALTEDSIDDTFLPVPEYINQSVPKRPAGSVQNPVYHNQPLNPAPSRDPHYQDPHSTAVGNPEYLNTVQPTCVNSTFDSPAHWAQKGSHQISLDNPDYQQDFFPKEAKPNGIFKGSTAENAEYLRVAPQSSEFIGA
Measured composite z-score, listed per entry for reference.
API doc: respond with a numeric literal and nothing else, no unit.

Check out these entries, answers already filled in.
{"compound": "CCCCN1CC=CC23O[C@@H]4/C=C\\CCC(C)OC(=O)C4[C@H]2C(=O)N(CCO)[C@@H]3C1=O (some centres undefined)", "observed": -0.652}
{"compound": "C=CCNC(=O)[C@H]1[C@@H]2C(=O)O[C@@H](c3ccccc3)[C@@H](c3ccccc3)N2[C@@H](c2ccc(O)cc2)[C@]12C(=O)Nc1ccc(C#CCC(C(=O)OC)C(=O)OC)cc12", "observed": -0.195}
{"compound": "C=C(COC)/C(=C/C[C@@H](OC(=O)c1ccncc1)c1ccccc1OCCO)c1cnc2ccccc2c1", "observed": 1.3}

Shift focus to the following entry.
stdin: Quick check: composite z-score of C=CC[C@H](O)c1ccc(O)c(F)c1 ?
stdout: -1.23

###

assay: splicing luciferase reporter signal modulators, primary screen, spliceosome inhibition project, cell-based, HEK293, splice +/- reporter (AID 1101); conditions: luminescence, 24 h, higher = more signal, called active from +8 up or from −8 down;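 further: HEK293 cells carrying a splicing-competent luciferase reporter gene; test concentration not given here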
Reported z-score values for the following compounds.
Keep the answer to the number alone.

{"compound": "CCCN1C(=O)[C@@]2(c3ccc([N+](=O)[O-])cc3)CC(=O)N(C3CCCCC3)[C@@H]2c2ccc(CO)cc21", "measured-metric": "z-score", "observed": -0.237}

stdin: GET /values?readout=z-score&item= C[C@@]1([C@@H](NS(=O)(=O)c2cccc3cccnc23)c2ccc(-c3ccccc3)cc2)C[C@H]1C1CCCCC1
stdout: -1.19

###

biological target: Concanavalin-A (Canavalia ensiformis); test: ConA small-molecule binders, primary screen, artefact control for SMM control protein annotation, biochemical, small-molecule microarray, Alexa647 label, 635 nm (AID 1127); conditions: ConA-A647 binding fluorescence, higher = more signal;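 further: z combines 667 nm emission intensity with signal-to-noise across three replicate slides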
The reader will find reported composite z-score values listed item by item below.
# output: bare number, no unit

stdin: For the compound CO[C@H]1O[C@H](CO)[C@@H](OC(=O)Nc2cccc(F)c2)[C@H](OC(=O)c2cc3ccccc3[nH]2)[C@H]1OC(=O)c1cc2ccccc2[nH]1 , what composite z-score is on record?
stdout: -0.732

stdin: Param item: C=CCNC(=O)[C@H]1[C@@H]2C(=O)O[C@@H](c3ccccc3)[C@@H](c3ccccc3)N2[C@@H](c2ccc(OCCO)cc2)[C@]12C(=O)N(C(=O)OCCOC)c1ccc(C#CCC(C(=O)OC)C(=O)OC)cc12
stdout: 1.12

###

tested on: wheat germ agglutinin (Triticum aestivum), Alexa647-labelled; experiment: wheat germ agglutinin binders on compound microarrays, profiling panel, artefact control for SMM control-protein annotation, biochemical, small-molecule microarray, 635/667 nm fluorescence (AID 1140); settings: WGA-A647 binding, 635 nm fluorescence, higher = more signal;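 further: score merges 667 nm feature emission with signal to noise over triplicate slides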
Listed here: items and their measured composite z-score.

// worked examples, composite z-score included
{"compound": "COC(=O)[C@@]1(Cc2ccc(OC)cc2)[C@H]2c3cc(C(=O)N(C)C)n(Cc4c(CO)[nH]cc(C)c4=O)c3C[C@H]2CN1C(=O)c1ccccc1", "measured-metric": "composite z-score", "observed": 0.19}
{"compound": "C=C(COC)/C(=C/C[C@@H](OC(C)=O)c1cccc(OCCO)c1)c1cnc2ccccc2c1", "measured-metric": "composite z-score", "observed": 1.04}
{"compound": "CO[C@H]1O[C@H](CO)[C@@H](OC(=O)Nc2cccc(F)c2)[C@H](OC(=O)Nc2ccc3c(c2)OCO3)[C@@H]1OC(=O)Nc1ccc2c(c1)OCO2", "measured-metric": "composite z-score", "observed": 0.654}

stdin: Quick check: composite z-score of O=C1NC(=O)C2C1C=CC(C(O)C1CCCCC1)N2Nc1ccccn1 (stereo unspecified) ?
stdout: 0.149

stdin: What about Cc1ccc(S[C@]2(C(=O)NCCN3CCOCC3)CC(=O)N(C(C)C)[C@@H]2c2ccc(CO)cc2I)cc1 ?
stdout: -0.581

stdin: Please give the result for COC(=O)[C@H]1N=C(c2ccc(OCCCO)cc2)O[C@H]1c1ccccc1N=[N+]=[N-] too.
stdout: 0.733

stdin: Now the compound O=C(NCCN1CCOCC1)[C@@H]1c2ccccc2C(=O)N(CC23CC4CC(CC(C4)C2)C3)[C@H]1c1ccc(CO)cc1
stdout: 1.17

Source of measurements: PubChem BioAssay
